system tested: T1, His-tagged human B7-H3 (human, UniProt Q5ZPR3-2 29-245, limits assumed)
T1 construct: Bought His-tagged protein coated on the ELISA plate; also called hu B7-H3; CD276
T1 sequence (looked up): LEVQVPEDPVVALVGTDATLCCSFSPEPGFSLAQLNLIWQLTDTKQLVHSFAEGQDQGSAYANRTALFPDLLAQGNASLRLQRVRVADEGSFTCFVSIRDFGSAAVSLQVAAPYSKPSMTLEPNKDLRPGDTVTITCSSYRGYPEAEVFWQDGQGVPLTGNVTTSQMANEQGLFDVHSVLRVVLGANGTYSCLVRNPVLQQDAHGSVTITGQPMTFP
protocol: ELISA OD450 on hu B7-H3 over OD450 on mu B7-H3
experimental endpoint: hu:mu ratio

• 40633p1.2.D1 (scFv, V domains shown, Tested as scFv-Fc (Expi293 supernatant)) VH: EVQLLESGGGLVQPGGSLRLSCAASGFTFDVYGMSWVRQAPGKGLEWVSAINWNGGSTYYADSVKGRFTISRDNSENTLYLQMNSLRAEDTAVYYCAKEKWKHFIYYGMDVWGQGTTVTVSS VL: QSVLTQPASASGTPGQTVSISCSGSSSNIDSNTANWYQQLPGTAPKLLIYSNNQRPSGVPDRFSGSKSDTSASLAISGLQSEDEGDYYCSAWDDNLNGWLFGGGTKLTVL = 1.08
• 40579p1.D8 (scFv, V domains shown, Tested as scFv-Fc (Expi293 supernatant)) VH: EVQLLESGGGLVQPGGSLRLSCAASGFTFSDYYMSWVRQAPGKGLEWVSSISISYGGTTYYADSVKGRFTISRDNSKNTLYLQMNSLRAEDTAVYYCARDRSPYQCRSMDVWGQGTTVTVSS VL: EIVLTQSPGTLSLSPGERATLSCRASQSIRSDLAWYQQKPGQAPRLLIYNTVTRATGVPDRFSGSGSGTEFTLTISSLQSEDFAVYYCQQYNSWPPLTFGGGTKVEIK = 2.1
• 40579p1.E5 (scFv, V domains shown, Tested as scFv-Fc (Expi293 supernatant)) VH: EVQLLESGGGLVQPGGSLRLSCAASGFTFSDDWMTWVRQAPGKGLEWVSAINWNGNSTHYADSVKGRFTVSRDNSKNTLYLQMNSLRAEDTAVYYCAKSRTTYYSSMDVWGQGTTVTVSS VL: EIVLTQSPGTLSLSPGERATLSCRASQTVGSYLAWYQQKPGQAPRLLIYGASSRATGIPARFSGSGSGTDFTLTISSLQSEDFAVYYCQHYYDWPPYSFGGGTKVEIK = 1.36
• 40633p1.1.A7 (scFv, V domains shown, Tested as scFv-Fc (Expi293 supernatant)) VH: EVQLLESGGGLVQPGGSLRLSCAASGFTVSYYGMSWVRQAPGKGLEWVSAIKQDGSEKYYADSVKGRFTISRDNSKNTLYLQMNSLRAEDTAVYYCARHWNDYSNAMNVWGQGTTVTVSS VL: QSVLTQPPSASGTPGQRVTISCSGSTSNIGRESVYWYQQLPGTAPKLLIYTIDQRPSGVPDRFSGSKSGTSASLAISGLQSEDEAVYYCASWDASLNGWVFGGGTKLTVL = 0.991
• 40579p1.H6 (scFv, V domains shown, Tested as scFv-Fc (Expi293 supernatant)) VH: EVQLLESGGGLVQPGGSLRLSCAASGFTVNNAWMSWVRQAPGKGLEWVSAISYGGSIYYADSVKGRFTISRDNSKNTLYLQMNSLRAEDTAVYYCAKHRSTTYNGMDVWGQGTTVTVSS VL: EIVLTQSPGTLSLSPGERATLSCRASQSVGSFLAWYQQKPGQAPRLLIYGANTRAAGIPDRFRGSGNGTDFTLTISSLQSEDFAVYYCQQYYDWPPLTFGGGTKVEIK = 1.28
